tested-on: LmjIPCS (inositol phosphorylceramide synthase from L. major) (Leishmania major, UniProt E9AFX2)
experiment: biochemical
Type: biochemical
measurement-parameters: NINDS set screen, single concentration printed as 20mM
readout-type: 20mM inhibition LmjIPCS (%)
Answer format: numeric, % implied, no suffix.

Solved cases (4 shown):
                                   compound             readout_type  val
0  CN(C)CCOC(c1ccc(Cl)cc1)c1ccccn1 (centres unmarked)  20mM inhibition LmjIPCS   36
1       c1ccc2c(Cc3c[nH]c4ccccc34)c[nH]c2c1  20mM inhibition LmjIPCS   37
2  CC[C@H]1CN2CC[C@H]1C[C@@H]2[C@@H](O)c1ccnc2ccc(OC)cc12 [HYDROQUINIDINE]  20mM inhibition LmjIPCS   58
3         N[C@@H]1C[C@H]1c1ccccc1 (racemic)  20mM inhibition LmjIPCS   49

Next, consider the following compound.
Identify the reported 20mM inhibition LmjIPCS for the following entry. CC(=O)Oc1ccccc1C(=O)Oc1ccccc1C(=O)O [DIPLOSALSALATE]
67

* * *

tested-on: LmjIPCS (inositol phosphorylceramide synthase from L. major) (Leishmania major, UniProt E9AFX2)
Sequence (E9AFX2 1-338): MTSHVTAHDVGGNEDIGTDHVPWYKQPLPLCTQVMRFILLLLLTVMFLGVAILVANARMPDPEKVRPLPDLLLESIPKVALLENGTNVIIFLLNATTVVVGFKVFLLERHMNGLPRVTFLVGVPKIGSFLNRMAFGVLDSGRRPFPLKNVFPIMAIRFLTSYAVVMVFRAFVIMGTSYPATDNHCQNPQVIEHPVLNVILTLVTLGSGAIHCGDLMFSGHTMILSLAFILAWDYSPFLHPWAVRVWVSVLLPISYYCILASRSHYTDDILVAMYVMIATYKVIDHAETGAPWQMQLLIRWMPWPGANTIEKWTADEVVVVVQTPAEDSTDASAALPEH
experiment: biochemical
Format: biochemical
Design: dose or concentration left out as unconfirmed
measurement-parameters: read-out: inhibition LmjIPCS
Structures can show the parent of a compound that is named as a salt.
The reader will find reported inhibition values listed item by item below.
Answer format: numeric, % implied, no suffix.

Solved cases (5 shown):
>>> df
                                   compound  unit_string   val
0           Nc1ccc(S(=O)(=O)c2ccc(N)cc2)cc1            %  1.23
1     COc1cc(NS(=O)(=O)c2ccc(N)cc2)nc(OC)n1            %    15
2  COC(=O)[C@@H]1[C@H]2C[C@H]3c4[nH]c5ccccc5c4CCN3C[C@@H]2CC[C@@H]1O [YOHIMBINE HYDROCHLORIDE]            %    23
3                              Oc1cccc(O)c1            %  1.29
4     CCn1cc(C(=O)O)c(=O)c2cnc(N3CCCC3)nc21            %  8.53

Identify the reported inhibition for the following entry. `CC(=O)CCCCn1c(=O)c2c(ncn2C)n(C)c1=O`
5.62

Identify the reported inhibition for the following entry. `O=c1oc2ccccc2c(O)c1Cc1c(O)c2ccccc2oc1=O`
-3

Identify the reported inhibition for the following entry. `NCCCC[C@H](N[C@@H](CCc1ccccc1)C(=O)O)C(=O)N1CCC[C@H]1C(=O)O`
6

Identify the reported inhibition for the following entry. CCN(CC)CCNC(=O)c1ccc(N)cc1 [PROCAINAMIDE]
19

Each recorded value in this set is attributed to paper PMC7802075.
